Each entry below carries its reported OD450 nm.
Biological target: T1, hSEMA4D ECD-His (His-tagged human SEMA4D protein extracellular domain, Met22-Arg734) (human, UniProt Q92854 22-734)
T1 construct: Expressed in CHO-S cells, purified on Ni column; also called protein immunogen; immunogen A; not shown: His tag of the pCP vector
T1 sequence: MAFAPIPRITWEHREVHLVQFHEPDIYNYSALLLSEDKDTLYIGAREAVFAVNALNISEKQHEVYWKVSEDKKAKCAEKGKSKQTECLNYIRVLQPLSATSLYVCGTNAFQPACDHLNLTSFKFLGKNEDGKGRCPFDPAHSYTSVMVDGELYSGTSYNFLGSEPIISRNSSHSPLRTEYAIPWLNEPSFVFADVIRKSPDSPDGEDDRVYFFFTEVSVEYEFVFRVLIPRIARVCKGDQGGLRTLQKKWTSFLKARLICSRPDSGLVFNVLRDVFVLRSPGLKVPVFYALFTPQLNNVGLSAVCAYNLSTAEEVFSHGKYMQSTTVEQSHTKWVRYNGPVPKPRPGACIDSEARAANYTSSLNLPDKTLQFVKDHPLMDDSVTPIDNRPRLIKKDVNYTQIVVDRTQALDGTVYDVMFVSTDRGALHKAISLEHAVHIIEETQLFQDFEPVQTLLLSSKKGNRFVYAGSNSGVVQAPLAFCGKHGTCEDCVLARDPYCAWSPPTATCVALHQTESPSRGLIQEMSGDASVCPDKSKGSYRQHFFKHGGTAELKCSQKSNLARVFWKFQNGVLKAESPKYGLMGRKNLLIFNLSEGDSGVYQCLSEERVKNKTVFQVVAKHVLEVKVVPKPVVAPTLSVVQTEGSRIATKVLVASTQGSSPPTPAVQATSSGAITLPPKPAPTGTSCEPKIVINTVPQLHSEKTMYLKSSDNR
Test: ELISA, coated hSEMA4D ECD-His; Ab 0.267 nM
Protocol: First, hSEMA4D ECD-His was diluted with PBS to a final concentration of 1.0 μg/mL, and then was added to a 96-well ELISA plate, 100 μL per well, sealed with plastic film and incubated overnight at 4° C. […] A microplate reader (SpectraMax M5e, purchased from Molecular Device) was used to read the A450 nm value. […]
Kindly provide the number alone.

Recorded results for 3 binders are shown here.
Binder	OD450 nm
31C11G2 (antibody, V domains shown, Mouse monoclonal antibody purified from hybridoma supernatant on protein A) VH: EVQLQQSGAELVRPGASVKLSCTASGFNIKDEYIHWVKQRPEQGLEWIGWIDPANGHTEYASRFQAKATITADTSSNTAYLQLSSLTSEDTAVYYCTTGDYDGFVYWGQGTLVTVST VL: QIVLTQSPAIMSASPGEKVTIFCSARSSVSYMYWYQQKPGSSPKPWIYRTSNLASGVPARFSGSGSGTSYSLTISSMEAEDAATYYCQHYHTYPYTFGGGTKLEIK	1.47
37F11F9 (antibody, V domains shown, Mouse monoclonal antibody purified from hybridoma supernatant on protein A) VH: EVQLQQSGPVLVKPGASVKMSCKASGYTFTDYYMNWVKQSHGKSLEWIGLINPYSGGSTFNQKFKAKATLTVDKSSSSAYMDLNSLTSEDSAVYYCARVGDGYYGVTHGMDYWGQGTSVTVSS VL: DIVMTPSQKFMSTTVGDRVSITCKASQNVGTAVAWYQQKPGQSPTILIYSASNRYTGVPDRFTGSGSGTDFTLTISNMKSEDLADYFCQQYYIYPFTFAAGTKLELK	0.89
38H2E3 (antibody, V domains shown, Mouse monoclonal antibody purified from hybridoma supernatant on protein A) VH: EFQLQQSGPEVVKPGASVKISCKASGYSFTDYNMNWMKQSKGKSLEWIGVISPDYGTTTYNQNFKDKATLTVDQSSSTAYMQLNSLTSEDSAVYYCAKDMYYVYAYYTMDYWGHGTSVTVSS VL: DVVMTQTPLSLPVSLGDQASISCRSSQSLVHSNGHTYLHWYLQRPGQSPTLLIYKVSNRFSGVPDRVSGSGSGTDFTLKISRVEAEDLGVYFCSQGTHVPRTFGGGTKLEIK	0.531

// returns reported OD450 nm for input 37C4F7 (antibody, V domains shown, Mouse monoclonal antibody purified from hybridoma supernatant on protein A) VH: EFQLQQSGPEVVKPGASVKISCKASGYSFTDYNMNWMKQSKGKSLEWIGVINPNYGTTTYNQNFKGKATLTVDQSSSTAYMQLNSLTSEDSAVYYCARDMYYVYAYYTMDYWGQGTSVTVSS VL: DVVMTQTPLSLPVSLGDQASISCRSSQSLVHSNGHTYLHWYLQRPGQSPTLLIYKVSNRFSGVPDRFSGSGSGTDFTLKISRVEAEDLGVYFCSQGTHVPWTFGGGTKLEIK
0.41

Values were extracted from patent US20220073608A1.
